These measurements were taken from patent US20150274820A1.

Listed here: items and their measured kon.
target: recombinant rat VEGF164 (rat) (UniProt P16612); test: Biacore SPR, VEGF immobilized, pH 5
Could you give me the number in M⁻¹ s⁻¹? Just the number is fine.

[
  {
    "binder": "509-maxII (scFv, VH tied by name; also called Protein Nr) scFv: EIVMTQSPSTLSASVGDRVIITCQASQNIRIWLSWYQQKPGKAPKLLIYKASTLESGVPSRFSGSGSGTEFTLTISSLQPDDFATYYCQNNAHYSTNGGTFGQGTKLTVLGGGGGSGGGGSGGGGSGGGGSEVQLVESGGGLVQPGGSLRLSCTASGFSLSSYYMSWVRQAPGKGLEWVGILDYVGDTDYASWAKGRFTISKDASKNTVYLQMNSLRAEDTAVYYCARTDDSRGWGLNIWGQGTLVTVSS",
    "kon (M⁻¹ s⁻¹)": "1.47e+07"
  }
]

Moving on to the next binder.
Request: Record request: kon value, item 511-min (scFv, VL and VH tied by name; also called Protein Nr) scFv: EIVMTQSPSTLSASVGDRVIITCQASQSINIWCSWYQQKPGKAPKLLIYRASTLASGVPSRFSGSGSGAEFTLTISSLQPDDFATYYCQANYAYSAGYGAAFGQGTKLTVLGGGGGSGGGGSGGGGSGGGGSEVQLVESGGGLVQPGGSLRLSCAASGFSLNTYYMNWVRQAPGKGLEWVSIIAPDDTTYYASWAKSRFTISRDNSKNTLYLQMNSLRAEDTAVYYCAKSGDTTAWGADIWGQGTLVTVSS
Response: 550000
